// provenance: ChEMBL document CHEMBL1649368

Entries and their measured CC50 at 120 h follow.
# MEASUREMENT DESCRIPTION: Cytotoxicity against human MT4 cells after 5 days by spectrophotometry
# Assay type: cell-based
A bare number is not enough; add the unit after it.

COc1c(N2CCN(CN3C(=O)/C(=N\NC(=S)NO)c4cc(F)ccc43)C(C)C2)c(F)cc2c(=O)c(C(=O)O)cn(C3CC3)c12 (stereo unspecified): 206 µM
CCn1cc(C(=O)O)c(=O)c2cc(F)c(N3CCN(CN4C(=O)/C(=N\NC(=S)NO)c5cc(C)ccc54)C(C)C3)c(F)c21 (stereo unspecified): 244 µM
Cc1ccnc2c1NC(=O)c1cccnc1N2C1CC1 [NEVIRAPINE]: 156 µM
CONC(=S)N/N=C1\C(=O)N(CN2CCN(c3ccc(Cl)cc3)CC2)c2ccc(Cl)cc21: 229 µM
Cc1ccc2c(c1)/C(=N/NC(=S)NO)C(=O)N2CN1CCN(c2ccc(Cl)cc2)CC1: 335 µM

// next item, CC50 at 120 h requested
Q: Hello, please tell me recorded CC50 at 120 h for this one: `CCN(CC)CN1C(=O)/C(=N\NC(=S)NOC)c2cc(C)ccc21`
A: 573 µM

====

# Tested on: Mycobacterium tuberculosis
# MEASUREMENT DESCRIPTION: Antimycobacterial activity against Mycobacterium tuberculosis H37Ra assessed as inhibition of bacterial growth in dormant phase
# Assay type: functional
MEASURED ENDPOINT: MIC (µM)
Please reply with the bare figure in µM and do not write the unit itself.

CCn1cc(C(=O)O)c(=O)c2cc(F)c(N3CCN(CN4C(=O)/C(=N\NC(=S)NOC)c5cc(F)ccc54)CC3)cc21: 17
CONC(=S)N/N=C1\C(=O)N(CN2CCN(c3c(F)cc4c(=O)c(C(=O)O)cn(C5CC5)c4c3OC)CC2C)c2ccc(C)cc21 (stereo unspecified): 17.8
CONC(=S)N/N=C1\C(=O)N(CN2CCN(c3ccc(Cl)cc3)CC2)c2ccc(Cl)cc21: 27.3

Q: Look up Mycobacterium tuberculosis data: MIC of `NNC(=O)c1ccncc1` , then report it.
A: 182

Q: Look up Mycobacterium tuberculosis data: MIC of `CONC(=S)N/N=C1\C(=O)N(CN2CCN(c3ccc(OC)cc3)CC2)c2ccc(C)cc21` , then report it.
A: 9.74

Q: Look up Mycobacterium tuberculosis data: MIC of `CO[C@H]1/C=C/O[C@@]2(C)Oc3c(C)c(O)c4c(O)c(c(/C=N/N5CCN(C)CC5)c(O)c4c3C2=O)NC(=O)/C(C)=C\C=C\[C@H](C)[C@H](O)[C@@H](C)[C@@H](O)[C@@H](C)[C@H](OC(C)=O)[C@@H]1C` , then report it.
A: 15.2

====

# MEASUREMENT DESCRIPTION: Cytotoxicity against human MT4 cells after 5 days by spectrophotometry
# Assay type: cell-based
MEASURED ENDPOINT: CC50 at 120 h (µM)
Please reply with the bare figure in µM and do not write the unit itself.

CONC(=S)N/N=C1\C(=O)N(CN2CCN(c3c(F)cc4c(=O)c(C(=O)O)cn(C5CC5)c4c3OC)CC2C)c2ccc(F)cc21 (stereo not drawn): 171
O=C(O)c1cn(C2CC2)c2cc(N3CCN(CN4C(=O)/C(=N\NC(=S)NO)c5cc(Cl)ccc54)CC3)c(F)cc2c1=O: 229
O=C1/C(=N\NC(=S)NO)c2cc(F)ccc2N1CN1CCN(c2ccccc2)CC1: 251
CONC(=S)N/N=C1\C(=O)N(CN2CCN(c3c(F)cc4c(=O)c(C(=O)O)cn(C5CC5)c4c3OC)CC2C)c2ccc(Cl)cc21 (stereo not drawn): 164
CCn1cc(C(=O)O)c(=O)c2cc(F)c(N3CCN(CN4C(=O)/C(=N\NC(=S)NO)c5cc(C)ccc54)CC3)cc21: 327

Q: Hello, please tell me recorded CC50 at 120 h for this one: `CCN(CC)CN1C(=O)/C(=N\NC(=S)NOC)c2cc(Cl)ccc21`
A: 454

Q: Hello, please tell me recorded CC50 at 120 h for this one: `CCn1cc(C(=O)O)c(=O)c2cc(F)c(N3CCN(CN4C(=O)/C(=N\NC(=S)NOC)c5cc(C)ccc54)CC3)cc21`
A: 238

Q: Hello, please tell me recorded CC50 at 120 h for this one: `CONC(=S)N/N=C1\C(=O)N(CN2CCOCC2)c2ccc(Cl)cc21`
A: 322
